All values here come from PubChem BioAssay (NCI).

System: MCF7 breast
ASSAY: NCI-60 one-dose screen, 48 h
CONDITION CONTEXT: 10 µM unless noted
About 83,000 compounds went through this panel and 20% of them were active in at least one assay; those are over-represented in the sample as a whole. Activity calls are given as the source filed them. The calls were made as follows: active = growth percent below 10; inactive = the rest.
Just give me one of these, please: True = active, False = inactive

Consider the following illustrative entries.
- COMPOUND: "CNC(=O)c1cc(Oc2ccc3nc(NC(=O)Nc4cccc(OC(F)(F)F)c4)sc3c2)ccn1"
  CATEGORY LABEL: "False"
- COMPOUND: "O=C(CN1C(=O)/C(=C/c2ccccc2F)SC1=S)N1CCOCC1"
  CATEGORY LABEL: "False"
- COMPOUND: "COCOc1cc2c(=O)c(C)c(C(=O)N[C@@H](Cc3ccccc3)C(O)C(=O)NCc3ccccc3)oc2cc1OC (some centres not stated)"
  CATEGORY LABEL: "False"
- COMPOUND: "COc1ccc(C(=O)/C=C/c2cc3c(cc2Br)OCO3)cc1S(N)(=O)=O"
  CATEGORY LABEL: "True"
- COMPOUND: "O=c1onc(-c2cc3ccccc3nc2Cl)n1-c1cccc2ccccc12"
  CATEGORY LABEL: "False"

Q) Hey, what did the test say about "Cc1cc2nc3c4ccccc4n(CC4=NCCN4)c3nc2cc1C" ?
A) True

Q) Lab log entry: COc1cc2c(c(OC)c1OC)C(=O)CC(c1cccc(NC(=O)c3cc(NC(=O)[C@@H](N)CO)ccc3C)c1)O2 (some centres not stated) — outcome as called in the assay?
A) False

Q) Hi, do you know how "Cc1ccc(-c2nc(C#N)c(S(=O)(=O)N3CCN(S(=O)(=O)c4ccccc4)CC3)o2)cc1" came out in this test?
A) True

Q) What was the test verdict on "Cc1ccc(/C=C/c2n(Cc3ccc4ccccc4c3)c3ccccc3[n+]2Cc2ccc3ccccc3c2)cc1" ?
A) True

Q) Called result for "CN1C(=O)/C(=C/c2ccc(C(=O)Nc3ncc(Cc4ccc(Cl)cc4Cl)s3)cc2)SC1=S"
A) False

Q) Hi, sorry to bother you, what did the test record for "Cc1ccc(Cc2cnc(NC(=O)c3ccc(/C=C4\SC(=S)N(C)C4=O)cc3)s2)cc1" ?
A) False

Q) Given "O=C(NNc1nc2cc(F)ccc2n2c(C(=O)N3CCN(C4CC4)CC3)ccc12)c1ncccn1" , state the outcome it received in this test.
A) False

Q) What is the recorded call for this compound in the test? "Cn1cc(-c2cc(N)n3nc(-c4cn(C)c5ccccc45)cc3n2)c2cc(Br)ccc21"
A) True

Q) Just curious, what result did CCCCCCCS(=O)(=O)N1CCCC(C(=O)Nc2nc3ccc(NC(=O)c4ccc(F)c(OC)c4F)cc3s2)C1 (configuration not stated) get here?
A) False

====

Tested on: SF-268 CNS
ASSAY: NCI-60 one-dose screen, 48 h
CONDITION CONTEXT: 10 µM unless noted
About 83,000 compounds went through this panel and 20% of them were active in at least one assay; those are over-represented in the sample as a whole. Activity calls are given as the source filed them. How the source made its calls: active means growth percent below 10; inactive means the rest.
Choose the fitting class; nothing outside active, inactive is accepted.

Use the examples below as a reference point.
- COMPOUND: "COc1ccc2oc3c4[nH]c5ccccc5c4c4c(c3c2c1)C(=O)N(C(=O)OC(C)(C)C)C4=O"
  CATEGORY LABEL: "active"
- COMPOUND: "COc1c(F)ccc(C(=O)Nc2ccc3nc(NC(=O)C4CCCN(S(=O)(=O)c5ccc(Cl)cc5)C4)sc3c2)c1F (stereo not given)"
  CATEGORY LABEL: "inactive"
- COMPOUND: "CC(=O)Nc1ccc(C(=O)NC(=S)Nc2ccc(S(N)(=O)=O)cc2)cc1"
  CATEGORY LABEL: "inactive"
- COMPOUND: "COc1ccc([C@H](C)Nc2nc(Cl)nc3ccccc23)cc1"
  CATEGORY LABEL: "inactive"

Q) Recorded test outcome, item C=C1CCC2C3(C)COC(c4cccs4)OC3CCC2(C)C1CC(Sc1ccccc1)C1=CCOC1=O (stereo not given)
A) inactive

Q) Test call for this compound, please: "O=C(O)c1ccc(-c2ccc(/C=N/NC(=O)c3[nH]c4ccc(Br)cc4c3-c3ccccc3)o2)cc1"
A) inactive

Q) What did the test return for "O=C1Nc2ccc([N+](=O)[O-])cc2C1=Nc1ccccc1" ?
A) inactive

Q) Hello, I am checking results. What call was entered for "COc1ccc(C(=O)/C=C/c2ccc(Cl)c(Cl)c2)cc1S(N)(=O)=O" ?
A) inactive

Q) Fill in: this test's call for "O=C1NC(=O)c2c1c1c3cc(Br)ccc3[nH]c1c1oc3ccc(F)cc3c21" is ___
A) active

Q) What classification did C=C1CCC2C3(C)COC(c4ccco4)OC3CCC2(C)C1CC(Sc1ccccc1)C1=CCOC1=O (stereo not given) end up with in this test?
A) inactive

Q) What did the test return for COC(=O)/C=C/c1cccc2c1C(=O)NC(C)(c1cc3ccccc3oc1=O)N2 (stereo not given) ?
A) inactive

Q) What did this assay record as the result for "Cc1cc2c(cc1Cl)C(=O)/C(=C/c1ccc(F)cc1)O2" ?
A) inactive

Q) Assay result, entry "S=C(Nc1ccc(OCc2nc3ccccc3[nH]2)cc1)NC1CCCCC1" — outcome?
A) inactive

Q) Identify the outcome logged in this assay for the compound shown: "CSc1ccccc1NC(=O)c1ccc2nn(/C(C#N)=C/c3ccccn3)nc2c1"
A) inactive

Q) Hello, I am checking results. What call was entered for "CCC(C)(C)c1ccc(OCCCCCCN2CCN(c3ccncc3)CC2)cc1" ?
A) inactive

Q) Entry "CNS(=O)(=O)c1ccc(Nc2ccc(C(F)(F)F)cc2)c(-c2cn(C)cn2)c1" : call = ?
A) inactive

Q) Call for entry C=C1CCC2C3(C)COC(c4ccccc4)OC3CCC2(C)C1CC(Sc1ccccc1)C1=CCOC1=O (stereo not given) :
A) inactive

Q) Per the assay record, what outcome was assigned to "CN(C)CCn1c2ccccc2c2nc3cc4ccccc4cc3nc21" ?
A) inactive

Q) Would you mind telling me which call this test gave Cc1ccc(NC(=O)[C@]23CCC(C)(C)CC2C2=CCC4[C@@]5(C)C[C@@H](O)[C@H](O)[C@@](C)(CO)C5CC[C@@]4(C)[C@]2(C)CC3)cc1 (stereo not given in full) ?
A) inactive

Q) I'd appreciate the recorded outcome for "CC(=O)c1cccc(NC(=O)CCC(=O)NS(=O)(=O)c2ccc(C)cc2)c1" from this test.
A) inactive
